Recorded IC50, Eotaxin-1 assay, n = 1, one value per entry.
molecular target: IL-13 (human IL-13, preparation not specified) (human, UniProt P35225 35-146, limits assumed); assay: cell-based or functional assay
Sequence (P35225 35-146 limits assumed): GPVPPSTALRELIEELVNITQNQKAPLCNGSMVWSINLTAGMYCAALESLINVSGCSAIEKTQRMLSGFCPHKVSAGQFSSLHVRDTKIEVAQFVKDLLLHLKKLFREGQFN
Please give a number only; it is taken to be in nM.

// below: answered binders
What value of IC50, Eotaxin-1 assay, n = 1 has been recorded for this entry: antibody 353 (antibody, V domains shown) VH: QVQLQESGPGLVKPSETLSLTCTVSGGSISTYYWSWIRQPPGKGLEWIGYIYYSGSTNYNPSLKSRVTISVDTSKNQFSLKLSSVTAADTAVYYCARDGGHYWDDAFDIWGQGTMVTVSS VL: DIQMTQSPSSLSASVGDRVTITCRASQGIRNDLDWYQQKPGKAPKRLIYDASSLQSGVPSRFSGSGSGTEFTLTISSLQPEDFATYYCLQHDSYPFTFGPGTKVDIK
0.099

What value of IC50, Eotaxin-1 assay, n = 1 has been recorded for this entry: antibody 11.18.3 (antibody, V domains shown) VH: QVQLVESGGGVVQPGRSLRLSCVASGFTFSSYDMHWVRQAPGKGLEWVAVIWYDGSNKYYADSVQGRFTISRDNSKNTLYLQMNSLRAEDTAVYYCTSEDSSGWYDGWFDPWGQGTLVTVSS VL: DIQMTQSPSSLSASVGDRVTITCRASQGISNYLAWYQQKPGKVPKVLIYAASTLQSGVPSRFSGSGSGTDFTLTISSLQPEDVATYYCQKYNSAPFTFGPGTKVDIK
0.213

***
What value of IC50, Eotaxin-1 assay, n = 1 has been recorded for this entry: antibody 602 (antibody, V domains shown, also called mAb 602) VH: EVQLVESGGGLVKPGGSLRLSCAASGFTFSNAWMSWVRQAPGKGLEWVGRIRSKIDGGTINYAAPVKGRFTISRDDSKNTLYLQMNSLKTEDTAVYYCATDQVGAYYGDYYGMDVWGQGTLVTVSS VL: SYELTQPPSVSVSPGQTARITCSGDALPEKYAYWYQQKSGQAPVLVIYEDTKRPSGIPERFSGSSSGTMATLTISGAQVEDEADYYCYSTDSSGNHGVFGGGTKLTVL
0.08

Data credit: patent US20220281966A1
